# assayedTarget: EGFR L858R (BaF3-L858R cells) (Homo sapiens, UniProt P00533, L858R)
# Construct: host or cells: BaF3
# Sequence (P00533 25-1210 L858R): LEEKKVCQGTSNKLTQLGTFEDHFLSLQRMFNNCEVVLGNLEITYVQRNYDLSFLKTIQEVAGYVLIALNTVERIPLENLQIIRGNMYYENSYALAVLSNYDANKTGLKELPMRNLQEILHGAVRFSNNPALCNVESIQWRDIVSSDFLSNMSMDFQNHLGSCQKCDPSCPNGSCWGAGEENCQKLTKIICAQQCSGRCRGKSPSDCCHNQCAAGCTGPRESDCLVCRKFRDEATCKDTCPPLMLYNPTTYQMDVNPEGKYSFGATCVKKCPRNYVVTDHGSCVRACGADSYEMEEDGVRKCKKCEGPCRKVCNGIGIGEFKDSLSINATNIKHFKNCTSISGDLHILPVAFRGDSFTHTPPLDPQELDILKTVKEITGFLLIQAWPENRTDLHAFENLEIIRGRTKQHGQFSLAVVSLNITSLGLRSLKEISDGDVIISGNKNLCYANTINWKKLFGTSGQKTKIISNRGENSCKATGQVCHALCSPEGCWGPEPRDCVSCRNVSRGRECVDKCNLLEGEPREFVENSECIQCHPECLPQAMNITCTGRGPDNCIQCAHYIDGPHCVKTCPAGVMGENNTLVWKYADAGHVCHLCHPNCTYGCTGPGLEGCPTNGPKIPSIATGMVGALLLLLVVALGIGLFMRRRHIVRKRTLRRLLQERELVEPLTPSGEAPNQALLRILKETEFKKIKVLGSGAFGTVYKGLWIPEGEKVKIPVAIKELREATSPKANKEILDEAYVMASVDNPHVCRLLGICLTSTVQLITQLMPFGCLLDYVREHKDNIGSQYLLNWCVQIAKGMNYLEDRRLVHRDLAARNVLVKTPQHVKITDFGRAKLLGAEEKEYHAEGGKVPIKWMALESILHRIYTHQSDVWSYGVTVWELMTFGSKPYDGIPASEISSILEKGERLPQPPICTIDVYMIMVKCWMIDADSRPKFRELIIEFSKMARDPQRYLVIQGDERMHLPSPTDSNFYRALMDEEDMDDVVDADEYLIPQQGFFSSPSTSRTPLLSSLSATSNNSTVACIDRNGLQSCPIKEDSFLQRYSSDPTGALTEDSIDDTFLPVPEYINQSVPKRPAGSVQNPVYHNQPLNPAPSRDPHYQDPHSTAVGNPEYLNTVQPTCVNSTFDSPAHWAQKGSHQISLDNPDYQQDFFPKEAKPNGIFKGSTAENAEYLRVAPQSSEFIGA
# assayDetails: Cell degradation of EGFR, HTRF assay, BaF3-L858R cells
# Type: cell-based
# measurementParameters: 16 h treatment, maximum percentage of degradation
readoutName: Dmax (%)

compound="COC[C@@H]1CN(c2ccc3c(c2)N2CC4CC[C@H](COc5c(cnn5C)-c5cc(cc(C)n5)C(=O)/N=C/2N3)C4)CCN1C1CCN(c2ccc(NC3CCC(=O)NC3=O)cc2C)CC1 (some centres unmarked)" recordednumber=79
compound="COC[C@H]1CN(c2ccc3c(c2)N2C[C@@H]4CC[C@H](COc5c(cnn5C)-c5cc(cc(C)n5)C(=O)/N=C/2N3)C4)CCN1C1CCN(c2ccc(C3CCC(=O)NC3=O)nc2C)CC1 (some centres unmarked)" recordednumber=88.7
compound=Cc1cc2cc(n1)-c1c(C)nn(C)c1OC[C@H]1CC[C@H](C1)CN1/C(=N/C2=O)Nc2ccc(N3[C@@H](C)CN(C4CCN(c5cc(F)c([C@H]6CCC(=O)NC6=O)c(F)c5)CC4)C[C@@H]3C)cc21 recordednumber=89.7
compound=Cc1cc2cc(n1)-c1cnn(C)c1OC[C@H]1CCC(C1)CN1/C(=N/C2=O)Nc2ccc(N3CC4(CCN(C5CCN(c6cc(F)c([C@H]7CCC(=O)NC7=O)c(F)c6)CC5)CC4)C3)cc21 recordednumber=77.1
compound=Cc1cc2cc(n1)-c1c(C)nn(C)c1OC[C@H]1CC[C@H](C1)CN1/C(=N/C2=O)Nc2ccc(N3C[C@H](C)N(C4CCN(c5cc(F)c([C@H]6CCC(=O)NC6=O)c(F)c5)CC4)C[C@@H]3C)cc21 recordednumber=74
